# study_target: CDK7 CyclinH (Homo sapiens)
# Sequence (P50613 whole entry): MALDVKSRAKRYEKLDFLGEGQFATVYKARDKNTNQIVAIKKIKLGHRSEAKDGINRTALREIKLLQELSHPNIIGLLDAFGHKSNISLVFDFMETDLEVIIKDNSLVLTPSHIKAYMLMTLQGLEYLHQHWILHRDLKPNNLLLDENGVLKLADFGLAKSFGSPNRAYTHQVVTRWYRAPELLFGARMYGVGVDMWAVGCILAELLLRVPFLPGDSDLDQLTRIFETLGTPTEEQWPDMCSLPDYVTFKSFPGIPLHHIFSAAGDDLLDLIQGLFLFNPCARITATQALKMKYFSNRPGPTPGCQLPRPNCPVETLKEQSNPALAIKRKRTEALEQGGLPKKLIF
# Sequence (P51946 whole entry partner): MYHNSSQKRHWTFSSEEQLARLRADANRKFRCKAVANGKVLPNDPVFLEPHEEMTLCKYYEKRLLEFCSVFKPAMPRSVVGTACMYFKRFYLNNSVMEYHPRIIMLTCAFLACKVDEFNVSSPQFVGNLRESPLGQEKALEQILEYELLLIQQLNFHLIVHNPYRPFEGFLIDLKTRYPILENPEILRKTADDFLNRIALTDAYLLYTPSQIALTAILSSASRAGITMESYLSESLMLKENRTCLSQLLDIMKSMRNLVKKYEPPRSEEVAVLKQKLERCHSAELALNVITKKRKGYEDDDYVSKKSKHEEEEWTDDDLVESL
# Sequence (P51948 whole entry partner): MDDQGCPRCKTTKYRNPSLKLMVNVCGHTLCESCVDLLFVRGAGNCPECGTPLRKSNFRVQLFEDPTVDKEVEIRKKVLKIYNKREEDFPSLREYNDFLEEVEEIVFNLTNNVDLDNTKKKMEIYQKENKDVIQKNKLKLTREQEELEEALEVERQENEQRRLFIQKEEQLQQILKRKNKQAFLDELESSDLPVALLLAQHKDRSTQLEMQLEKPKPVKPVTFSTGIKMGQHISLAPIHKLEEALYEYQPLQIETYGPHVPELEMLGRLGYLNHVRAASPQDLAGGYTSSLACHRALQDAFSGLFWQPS
# assay_remarks: CDK inhibition assay (microfluidic LabChip, IC50 format)
# Type: biochemical
# assay_context: Table 4b, lower part
property_measured: IC50

// solved cases for IC50 follow
CC(C)c1ccc(Nc2ncc3c(n2)N(C2CCCC2)C(=O)[C@]2(CCNC2=O)C3)cc1F | > 10 µM
CC(C)c1ccc(Nc2ncc3c(n2)N(C2CCCC2)C(=O)[C@]2(CCNC2=O)C3)cc1 | > 10 µM
C[C@]1(O)CC[C@@H](Nc2ncc3c(n2)N(C2CCCC2)C(=O)[C@]2(CCNC2=O)C3)CC1 | > 10 µM

Exercise: GET /values?readout=IC50&item= CN1CCN(c2ccc(Nc3ncc4c(n3)N(C35CC(C3)C5)C(=O)[C@]3(CCNC3=O)C4)nc2)CC1
Key: > 100 µM

---

# study_target: CDK6-CYCLIND3 (Homo sapiens)
# Construct: purchased Carna
# Sequence (Q00534 whole entry): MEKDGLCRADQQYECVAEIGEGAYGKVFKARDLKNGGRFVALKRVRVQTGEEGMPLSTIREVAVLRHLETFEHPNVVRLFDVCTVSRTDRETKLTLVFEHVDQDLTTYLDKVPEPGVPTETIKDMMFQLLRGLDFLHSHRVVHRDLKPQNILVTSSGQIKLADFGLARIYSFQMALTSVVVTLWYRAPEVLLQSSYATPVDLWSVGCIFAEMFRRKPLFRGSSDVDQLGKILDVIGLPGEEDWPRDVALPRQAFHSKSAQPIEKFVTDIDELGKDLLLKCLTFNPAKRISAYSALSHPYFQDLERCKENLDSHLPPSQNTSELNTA
# Sequence (P30281 whole entry partner): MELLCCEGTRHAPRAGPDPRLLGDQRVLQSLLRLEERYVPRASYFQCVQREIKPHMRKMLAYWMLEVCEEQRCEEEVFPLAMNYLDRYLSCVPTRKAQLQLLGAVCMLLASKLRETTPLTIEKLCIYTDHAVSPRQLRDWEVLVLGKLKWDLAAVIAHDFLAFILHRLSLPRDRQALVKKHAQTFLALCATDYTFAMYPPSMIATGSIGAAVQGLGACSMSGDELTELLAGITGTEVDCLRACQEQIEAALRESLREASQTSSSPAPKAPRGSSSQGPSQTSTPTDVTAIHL
# assay_remarks: CDK inhibition assay (microfluidic LabChip, IC50 format)
# Assay type: biochemical
# assay_context: Table 4b, upper part; read-out: CDK6 IC50
property_measured: IC50 (nM)
Field: numeric (nM). Do not append units.

// solved cases for IC50 follow
CN1C(=O)CC2(Cc3cnc(Nc4ccc(OCCN5CCCC5)c(F)c4)nc3N(C3CCCC3)C2=O)C1=O (stereo not shown) | 1450
O=C1NCCC12Cc1cnc(Nc3ccc(OCCN4CCCCC4)cn3)nc1N(C1CCCC1)C2=O (stereo not shown) | 56.5

Exercise: GET /values?readout=IC50&item= CC(C)N1CCN(c2ccc(Nc3ncc4c(n3)N(C3CCCC3)C(=O)C3(CC(=O)N(C)C3=O)C4)cc2)CC1 (stereo not shown)
Key: 129

Exercise: GET /values?readout=IC50&item= CN1CCN(c2ccc(Nc3ncc4c(n3)N(C3CCCC3)C(=O)C3(CC(=O)N(C)C3=O)C4)cn2)CC1 (stereo not shown)
Key: 455

Exercise: GET /values?readout=IC50&item= CN1CCN(c2ccc(Nc3ncc4c(n3)N(C3CCCC3)C(=O)C3(CCNC3=O)C4)cc2)CC1 (stereo not shown)
Key: 4.9

Exercise: GET /values?readout=IC50&item= CN(C)CCOc1ccc(Nc2ncc3c(n2)N(C2CCCC2)C(=O)C2(CC(=O)N(C)C2=O)C3)cc1 (stereo not shown)
Key: 491

Exercise: GET /values?readout=IC50&item= O=C1NCCC12Cc1cnc(Nc3ccc(OCCN4CCCC4)nc3)nc1N(C1CCCC1)C2=O (stereo not shown)
Key: 15.8

---

# study_target: UniProt:P11802
# Sequence (P11802 whole entry): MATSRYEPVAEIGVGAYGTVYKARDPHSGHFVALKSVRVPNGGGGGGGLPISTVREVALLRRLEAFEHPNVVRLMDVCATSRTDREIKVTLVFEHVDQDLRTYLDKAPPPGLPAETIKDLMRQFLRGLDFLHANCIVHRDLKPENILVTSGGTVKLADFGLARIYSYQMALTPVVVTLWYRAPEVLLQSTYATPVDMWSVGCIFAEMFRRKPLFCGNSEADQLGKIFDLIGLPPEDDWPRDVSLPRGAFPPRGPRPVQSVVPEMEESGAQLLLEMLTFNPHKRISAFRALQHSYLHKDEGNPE
# Sequence (P24385 whole entry partner): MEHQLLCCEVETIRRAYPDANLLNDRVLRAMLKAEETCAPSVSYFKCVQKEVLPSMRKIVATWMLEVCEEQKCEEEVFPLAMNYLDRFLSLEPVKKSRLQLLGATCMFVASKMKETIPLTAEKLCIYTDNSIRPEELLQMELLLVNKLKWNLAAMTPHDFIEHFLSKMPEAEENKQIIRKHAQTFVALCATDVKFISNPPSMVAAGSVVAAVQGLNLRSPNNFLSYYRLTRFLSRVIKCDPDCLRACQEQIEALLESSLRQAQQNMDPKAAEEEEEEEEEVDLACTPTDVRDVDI
# assay_remarks: CDK inhibition assay (microfluidic LabChip, IC50 format)
# assay_context: CDK4 CyclinD1 IC50, Table 4a; a second value in parentheses for some compounds
Measured IC50 determines class: L = under 2 nM, M = from 2 nM up to 5 nM, H = 5 nM and over

Exercise: Could you place COc1cc(Nc2ncc3c(n2)N(C2CCCC2)C(=O)[C@]2(CCNC2=O)C3)ccc1N1CCN(C)CC1 [Example D160] in its proper category? Many thanks.
Key: L

Exercise: Could you place CN(C)[C@H]1CCN(c2ccc(Nc3ncc4c(n3)N(C3CCCC3)C(=O)[C@]3(CCNC3=O)C4)nc2)C1 [Example D178] in its proper category? Many thanks.
Key: L

Exercise: Could you place Cc1cc(N2CCN(C)CC2)ccc1Nc1ncc2c(n1)N(C1CCCC1)C(=O)[C@]1(CCNC1=O)C2 [Example D163] in its proper category? Many thanks.
Key: H

Exercise: Could you place O=C1NCC[C@@]12Cc1cnc(Nc3ccc(N4CCNCC4)cc3F)nc1N(C1CCCC1)C2=O [Example D146] in its proper category? Many thanks.
Key: M

Exercise: Could you place COc1cc(N2CCN(C(C)C)CC2)ccc1Nc1ncc2c(n1)N(C1CCCC1)C(=O)[C@]1(CCNC1=O)C2 [Example D167] in its proper category? Many thanks.
Key: H

Exercise: Could you place COc1cc(Nc2ncc3c(n2)N(C2CCCC2)C(=O)[C@]2(CCNC2=O)C3)ccc1N1CCNCC1 [Example D159] in its proper category? Many thanks.
Key: L

Exercise: Could you place CN1CCN(c2ccc(Nc3ncc4c(n3)N(C3CCCC3)C(=O)N(c3ccccc3F)C4)cc2F)CC1 [Example D80] in its proper category? Many thanks.
Key: M

Exercise: Could you place Cc1cc(Nc2ncc3c(n2)N(C2CCCC2)C(=O)[C@]2(CCNC2=O)C3)ccc1N1CCNCC1 [Example D156] in its proper category? Many thanks.
Key: L

Exercise: Could you place CN1CCN(c2ccc(Nc3ncc4c(n3)N(C3CCCC3)C(=O)N([C@H]3CCNC3)C4)cc2)CC1 [Example D71] in its proper category? Many thanks.
Key: H

Exercise: Could you place Cc1cc(Nc2ncc3c(n2)N(C2CCCC2)C(=O)[C@]2(CCNC2=O)C3)ccc1N1CCN(C)CC1 [Example D157] in its proper category? Many thanks.
Key: L

Exercise: Could you place CN(C)[C@H]1CCN(c2ccc(Nc3ncc4c(n3)N(C3CCCC3)C(=O)[C@]3(CCNC3=O)C4)cc2)C1 [Example D174] in its proper category? Many thanks.
Key: L

Exercise: Could you place CN1CCN(c2ccc(Nc3ncc4c(n3)N(C3CCCC3)C(=O)[C@]3(CCNC3=O)C4)c(F)c2)CC1 [Example D147] in its proper category? Many thanks.
Key: H

Exercise: Could you place O=C1NCC[C@@]12Cc1cnc(Nc3ccc(N4CC5(CNC5)C4)c(F)c3)nc1N(C1CCCC1)C2=O [Example D173] in its proper category? Many thanks.
Key: H

Exercise: Could you place CN1CCN(c2ccc(Nc3ncc4c(n3)N(C3CCCC3)C(=O)[C@]3(CCNC3=O)C4)nc2)CC1 [Example D153] in its proper category? Many thanks.
Key: M

Exercise: Could you place CN1CCN(c2ccc(Nc3ncc4c(n3)N(C3CCCC3)C(=O)N([C@@H]3CCNC3)C4)cc2)CC1 [Example D74] in its proper category? Many thanks.
Key: H

Exercise: Could you place CN(C)[C@H]1CCN(C(=O)c2ccc(Nc3ncc4c(n3)N(C3CCCC3)C(=O)[C@]3(CCNC3=O)C4)cc2)C1 [Example D177] in its proper category? Many thanks.
Key: M

---

List of log10 of IC50 values.
# study_target: UniProt:P50613
# assay_remarks: CDK inhibition assay (microfluidic LabChip, IC50 format)
# Type: biochemical
# assay_context: Table 4a
Please keep in mind that the values are log10 of IC50 expressed in nM.

CC(C)N1CC2(CN(c3ccc(Nc4ncc5c(n4)N(C4CCCC4)C(=O)[C@]4(CCNC4=O)C5)nc3)C2)C1 | 4.42

Exercise: GET /values?readout=log10 of IC50&item= CN(C)[C@@H]1CCN(c2ccc(Nc3ncc4c(n3)N(C3CCCC3)C(=O)[C@]3(CCNC3=O)C4)cc2F)C1
Key: 2.10

Exercise: GET /values?readout=log10 of IC50&item= CN(C)[C@H]1CCN(C(=O)c2ccc(Nc3ncc4c(n3)N(C3CCCC3)C(=O)[C@]3(CCNC3=O)C4)cc2)C1
Key: 3.47

Exercise: GET /values?readout=log10 of IC50&item= CN1CCN(C2CCN(c3ccc(Nc4ncc5c(n4)N(C4CCCC4)C(=O)[C@]4(CCNC4=O)C5)cc3F)CC2)CC1
Key: 2.13

Exercise: GET /values?readout=log10 of IC50&item= CN1CCN(c2ccc(Nc3ncc4c(n3)N(C3CCCC3)C(=O)[C@]3(CCNC3=O)C4)c(F)c2)CC1
Key: 3.63

---

List of pIC50 values.
# study_target: CDK7 CyclinH (Homo sapiens)
# assay_remarks: CDK inhibition assay (microfluidic LabChip, IC50 format)
# Format: biochemical
# assay_context: Table 4a
pIC50 here is simply -log10 of the concentration when that concentration is written in mol/L.

// solved cases for pIC50 follow
CC(C)N1CCN(c2ccc(Nc3ncc4c(n3)N(C3CCCC3)C(=O)[C@]3(CCNC3=O)C4)cc2)CC1 | 6.82
O=C1NCC[C@@]12Cc1cnc(Nc3ccc(N4CC5(CNC5)C4)cc3)nc1N(C1CCCC1)C2=O | 6.17
O=C1NCC[C@@]12Cc1cnc(Nc3ccc(N4CC5(CNC5)C4)c(F)c3)nc1N(C1CCCC1)C2=O | 6.17

Exercise: GET /values?readout=pIC50&item= Cc1cc(N2CCNCC2)ccc1Nc1ncc2c(n1)N(C1CCCC1)C(=O)[C@]1(CCNC1=O)C2
Key: 5.49

Exercise: GET /values?readout=pIC50&item= O=C1NCC[C@@]12Cc1cnc(N[C@H]3CC[C@H](NC4CCOCC4)CC3)nc1N(C1CCCC1)C2=O
Key: 6.46

Exercise: GET /values?readout=pIC50&item= Cn1cc(-c2ccc(Nc3ncc4c(n3)N(C3CCCC3)C(=O)[C@]3(CCNC3=O)C4)cc2)cn1
Key: 5.55

Exercise: GET /values?readout=pIC50&item= Cc1cc(Nc2ncc3c(n2)N(C2CCCC2)C(=O)[C@]2(CCNC2=O)C3)ccc1N1CCN(C)CC1
Key: 6.79
